IC50 tested on human GST-CLK1 (129-end) (Homo sapiens, UniProt P49759): recorded values
Sequence (P49759 129-484 limits assumed): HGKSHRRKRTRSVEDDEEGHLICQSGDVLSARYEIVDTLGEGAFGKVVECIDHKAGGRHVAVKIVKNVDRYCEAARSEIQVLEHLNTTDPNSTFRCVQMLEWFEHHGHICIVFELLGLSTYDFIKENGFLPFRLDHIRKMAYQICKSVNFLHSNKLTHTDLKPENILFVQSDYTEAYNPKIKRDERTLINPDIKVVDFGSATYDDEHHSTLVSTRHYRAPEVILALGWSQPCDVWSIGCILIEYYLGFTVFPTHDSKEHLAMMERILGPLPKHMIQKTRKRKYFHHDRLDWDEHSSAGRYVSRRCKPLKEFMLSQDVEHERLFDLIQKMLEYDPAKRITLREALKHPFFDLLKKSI
Where a name gives a salt, the structure may show the parent alone.
measured.property: IC50

1. COc1cc(S(=O)(=O)N2CCOCC2)ccc1Nc1cc(NC2CCCCC2)c2c(Cl)c[nH]c2n1 [Example 70] ... 301 to 1000 nM
2. CCNc1cc(Nc2ccc(S(=O)(=O)N3CCOCC3)cc2OC)nc2[nH]ccc12 [Example 11, trifluoroacetate] ... 301 to 1000 nM
3. CCCCNc1cc(Nc2ccc(C(=O)N3CCOCC3)c3c2OCCO3)nc2[nH]cc(C(F)(F)F)c12 [Example 169] ... 301 to 1000 nM
4. CC(C)CNc1cc(Nc2ccc(C(=O)N3CCOCC3)c3c2OCCO3)nc2[nH]cc(C(F)(F)F)c12 [Example 156] ... 301 to 1000 nM
5. COc1cc(S(C)(=O)=O)ccc1Nc1cc(NC2CCCCC2)c2c(Cl)c[nH]c2n1 [Example 86] ... 301 to 1000 nM
6. COc1cc(S(=O)(=O)N2CCC(N3CCOCC3)CC2)ccc1Nc1cc(NCCS(C)(=O)=O)c2c(C(F)(F)F)c[nH]c2n1 [Example 194] ... < 100 nM
7. COc1cc(S(C)(=O)=O)ccc1Nc1cc(C2CC2)c2c(C#N)c[nH]c2n1 [Example 229] ... 301 to 1000 nM
8. COc1cc(S(C)(=O)=O)ccc1Nc1cc(NC2CC2)c2c(C(F)(F)F)c[nH]c2n1 [Example 187] ... 301 to 1000 nM
9. O=C(c1ccc(Nc2cc(C3CC3)c3c(C(F)(F)F)c[nH]c3n2)c2c1OCO2)N1CCC(N2CCOCC2)CC1 [Example 49] ... < 100 nM
10. CCNc1cc(Nc2ccc(P(C)(=O)O)cc2OC)nc2[nH]ccc12 [Example 32] ... 301 to 1000 nM
11. O=C(c1ccc(Nc2cc(C3CC3)c3c(C(F)(F)F)c[nH]c3n2)c2c1OCCO2)N1CCC(N2CCOCC2)CC1 [Example 221] ... < 100 nM
12. COc1cc(S(=O)(=O)N2CCOCC2)ccc1Nc1cc(NC2CC2)c2cc[nH]c2n1 [Example 15] ... 301 to 1000 nM
13. CNc1cc(Nc2ccc(S(C)(=O)=O)cc2OC)nc2[nH]cc(Cl)c12 [Example 80] ... 301 to 1000 nM
14. COc1cc(S(C)(=O)=O)ccc1Nc1cc(NC2CC2)c2c(C#N)c[nH]c2n1 [Example 122] ... 301 to 1000 nM
15. N#Cc1c[nH]c2nc(Nc3ccc(C(=O)N4CCOCC4)c4c3OCCO4)cc(C3CC3)c12 [Example 225] ... 301 to 1000 nM
16. CS(=O)(=O)CCNc1cc(Nc2ccc(C(=O)N3CCOCC3)c3c2OCCO3)nc2[nH]cc(C#N)c12 [Example 110] ... 101 to 300 nM
17. CNc1cc(Nc2ccc(C(=O)N3CCC(N4CCOCC4)CC3)c3c2OCCO3)nc2[nH]cc(C(F)(F)F)c12 [Example 160] ... < 100 nM
18. COc1cc(S(=O)(=O)N2CCOCC2)ccc1Nc1cc(NCCS(C)(=O)=O)c2c(C(F)(F)F)c[nH]c2n1 [Example 192] ... 301 to 1000 nM
19. COCCNc1cc(Nc2ccc(S(C)(=O)=O)cc2OC)nc2[nH]cc(C(F)(F)F)c12 [Example 201] ... 301 to 1000 nM
20. CS(=O)(=O)CCNc1cc(Nc2ccc(C(=O)N3CCOCC3)c3c2OCCO3)nc2[nH]cc(C(F)(F)F)c12 [Example 157] ... < 100 nM
21. CCCNc1cc(Nc2ccc(S(=O)(=O)N3CCOCC3)cc2OC)nc2[nH]cc(C#N)c12 [Example 133] ... 301 to 1000 nM
22. O=C(c1ccc(Nc2cc(NC3CC3)c3c(C(F)(F)F)c[nH]c3n2)c2c1CCO2)N1CCOCC1 [Example 53] ... < 100 nM
23. COCCNc1cc(Nc2ccc(S(=O)(=O)N3CCOCC3)cc2OC)nc2[nH]cc(C(F)(F)F)c12 [Example 195] ... 301 to 1000 nM
24. COc1cc(S(C)(=O)=O)ccc1Nc1cc(NC2CCCCC2)c2c(C(F)(F)F)c[nH]c2n1 [Example 182] ... 301 to 1000 nM

* * *

# remaining binding at 1 µM per record follows
target.under.test: DYRK2 (Homo sapiens, UniProt Q92630)
Construct: purchased DiscoverX
Sequence (Q92630 1-601): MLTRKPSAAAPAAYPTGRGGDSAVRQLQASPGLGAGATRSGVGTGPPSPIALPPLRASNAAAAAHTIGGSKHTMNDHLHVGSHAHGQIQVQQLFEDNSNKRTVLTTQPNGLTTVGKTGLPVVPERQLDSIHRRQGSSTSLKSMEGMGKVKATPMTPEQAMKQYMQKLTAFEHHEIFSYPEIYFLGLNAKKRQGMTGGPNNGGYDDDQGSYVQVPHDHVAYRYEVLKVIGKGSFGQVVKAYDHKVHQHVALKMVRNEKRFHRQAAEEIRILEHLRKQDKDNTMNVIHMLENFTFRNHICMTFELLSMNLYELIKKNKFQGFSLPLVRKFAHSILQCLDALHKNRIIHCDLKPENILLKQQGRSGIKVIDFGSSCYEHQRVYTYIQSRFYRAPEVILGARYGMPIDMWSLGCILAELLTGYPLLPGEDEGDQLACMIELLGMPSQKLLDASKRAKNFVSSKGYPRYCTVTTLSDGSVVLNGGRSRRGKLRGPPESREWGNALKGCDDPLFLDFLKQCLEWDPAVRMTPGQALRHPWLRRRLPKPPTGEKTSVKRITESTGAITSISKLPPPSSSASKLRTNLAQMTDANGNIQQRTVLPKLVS
protocol.details: scanMAX Kinase panel (DiscoverX), % control
Format: binding
test.context: <35% = active
measured.property: remaining binding at 1 µM (%)

1. CNc1cc(Nc2ccc(C(=O)N3CCC(N4CCOCC4)CC3)c3c2OCCO3)nc2[nH]cc(C(F)(F)F)c12 [Example 160] ... 20
2. CCNc1cc(Nc2ccc(C(=O)N3CCC(N4C[C@@H]5C[C@H]4CO5)CC3)c3c2OCC3)nc2[nH]cc(C(F)(F)F)c12 [Example 105] ... 8
3. CCNc1cc(Nc2ccc(P3(=O)CCN(C4CC4)CC3)cc2OC)nc2[nH]cc(C(F)(F)F)c12 [Example 206] ... 45
4. CCCNc1cc(Nc2ccc(C(=O)N3CCC(N4CCOCC4)CC3)c3c2OCCO3)nc2[nH]cc(C(F)(F)F)c12 [Example 162] ... 20
5. CNc1cc(Nc2ccc(C(=O)N3CC[C@H](N4CCOCC4)C3)c3c2OCC3)nc2[nH]cc(C(F)(F)F)c12 [Example 217] ... 9.7

* * *

target.under.test: LRRK2 (G2019S) (Homo sapiens, UniProt Q5S007, G2019S)
Sequence (Q5S007 whole entry G2019S): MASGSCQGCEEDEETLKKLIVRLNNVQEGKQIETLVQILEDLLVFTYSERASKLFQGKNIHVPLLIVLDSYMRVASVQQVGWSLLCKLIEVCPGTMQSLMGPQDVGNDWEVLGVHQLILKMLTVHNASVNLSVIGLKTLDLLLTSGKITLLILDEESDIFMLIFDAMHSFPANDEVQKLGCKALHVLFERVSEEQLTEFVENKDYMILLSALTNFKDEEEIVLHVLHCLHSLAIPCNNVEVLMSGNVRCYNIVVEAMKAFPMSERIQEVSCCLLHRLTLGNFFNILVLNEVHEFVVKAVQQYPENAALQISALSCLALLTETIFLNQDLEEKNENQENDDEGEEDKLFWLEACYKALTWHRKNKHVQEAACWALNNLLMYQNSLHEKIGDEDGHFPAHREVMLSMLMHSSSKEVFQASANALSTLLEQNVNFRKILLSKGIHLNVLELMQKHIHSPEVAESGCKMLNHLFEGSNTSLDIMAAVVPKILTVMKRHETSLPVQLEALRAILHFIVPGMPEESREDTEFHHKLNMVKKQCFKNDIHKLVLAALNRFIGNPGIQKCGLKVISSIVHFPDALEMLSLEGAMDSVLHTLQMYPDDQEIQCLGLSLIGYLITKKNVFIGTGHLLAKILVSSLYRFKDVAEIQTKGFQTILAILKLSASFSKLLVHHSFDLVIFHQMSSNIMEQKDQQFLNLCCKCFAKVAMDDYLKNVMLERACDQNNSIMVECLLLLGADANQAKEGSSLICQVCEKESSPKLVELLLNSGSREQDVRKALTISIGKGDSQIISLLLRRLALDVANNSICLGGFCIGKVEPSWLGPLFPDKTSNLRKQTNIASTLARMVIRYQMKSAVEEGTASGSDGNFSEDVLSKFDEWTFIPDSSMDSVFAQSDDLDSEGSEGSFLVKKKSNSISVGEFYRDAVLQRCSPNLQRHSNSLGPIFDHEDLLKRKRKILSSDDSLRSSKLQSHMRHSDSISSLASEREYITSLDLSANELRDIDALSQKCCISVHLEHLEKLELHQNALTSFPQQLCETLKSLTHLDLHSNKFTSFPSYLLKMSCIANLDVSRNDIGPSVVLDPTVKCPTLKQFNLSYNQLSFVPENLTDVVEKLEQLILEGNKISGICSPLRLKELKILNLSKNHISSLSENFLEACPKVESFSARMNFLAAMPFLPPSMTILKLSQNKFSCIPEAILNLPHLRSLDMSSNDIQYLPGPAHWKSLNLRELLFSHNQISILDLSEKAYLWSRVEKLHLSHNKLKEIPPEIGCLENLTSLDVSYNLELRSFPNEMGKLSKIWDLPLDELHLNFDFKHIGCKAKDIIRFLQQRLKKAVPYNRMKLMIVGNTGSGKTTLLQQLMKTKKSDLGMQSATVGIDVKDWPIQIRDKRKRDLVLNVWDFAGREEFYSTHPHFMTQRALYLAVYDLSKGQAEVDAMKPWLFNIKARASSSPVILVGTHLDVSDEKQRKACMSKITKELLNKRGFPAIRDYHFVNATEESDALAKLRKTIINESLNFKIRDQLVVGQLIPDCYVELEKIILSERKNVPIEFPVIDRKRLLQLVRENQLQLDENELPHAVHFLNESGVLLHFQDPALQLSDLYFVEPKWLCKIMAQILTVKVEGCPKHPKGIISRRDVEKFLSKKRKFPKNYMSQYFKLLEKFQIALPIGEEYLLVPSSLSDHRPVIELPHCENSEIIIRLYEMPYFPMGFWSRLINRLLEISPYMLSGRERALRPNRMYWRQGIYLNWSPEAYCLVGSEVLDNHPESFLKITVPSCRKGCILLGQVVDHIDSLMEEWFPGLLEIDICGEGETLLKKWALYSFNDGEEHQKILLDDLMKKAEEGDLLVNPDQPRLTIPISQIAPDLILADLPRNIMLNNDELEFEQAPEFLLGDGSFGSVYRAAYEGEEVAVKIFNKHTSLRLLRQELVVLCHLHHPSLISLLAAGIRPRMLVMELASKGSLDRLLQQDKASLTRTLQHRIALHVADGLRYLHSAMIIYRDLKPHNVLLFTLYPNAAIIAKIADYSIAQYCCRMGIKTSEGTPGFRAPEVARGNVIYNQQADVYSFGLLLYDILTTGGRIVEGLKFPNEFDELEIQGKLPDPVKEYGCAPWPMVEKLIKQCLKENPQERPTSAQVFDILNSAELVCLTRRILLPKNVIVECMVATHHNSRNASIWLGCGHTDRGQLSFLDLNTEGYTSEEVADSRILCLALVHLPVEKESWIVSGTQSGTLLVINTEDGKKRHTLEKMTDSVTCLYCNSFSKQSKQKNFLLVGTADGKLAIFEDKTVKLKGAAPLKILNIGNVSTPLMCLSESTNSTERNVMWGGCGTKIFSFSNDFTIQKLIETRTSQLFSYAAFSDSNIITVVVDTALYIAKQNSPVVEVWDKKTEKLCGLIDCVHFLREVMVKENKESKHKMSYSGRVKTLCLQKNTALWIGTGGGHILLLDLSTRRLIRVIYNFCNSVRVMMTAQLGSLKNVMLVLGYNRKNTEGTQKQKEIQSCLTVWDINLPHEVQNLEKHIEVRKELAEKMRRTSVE
protocol.details: scanMAX Kinase panel (DiscoverX), % control
Format: binding
Design: purchased DiscoverX
test.context: <35% = active
measured.property: remaining binding at 1 µM (%)

1) CNc1cc(Nc2ccc(P3(=O)CCN(C4CC4)CC3)cc2OC)nc2[nH]cc(C(F)(F)F)c12 [Example 205] ... 17
2) O=C(c1ccc(Nc2cc(C3CC3)c3c(C(F)(F)F)c[nH]c3n2)c2c1CCO2)N1CC[C@H](N2CCOCC2)C1 [Example 237] ... 31
3) O=C(c1ccc(Nc2cc(C3CC3)c3c(C(F)(F)F)c[nH]c3n2)c2c1OCCO2)N1CCC(N2CCOCC2)CC1 [Example 221] ... 5.5
4) COCCNc1cc(Nc2ccc(P3(=O)CCN(C4CC4)CC3)cc2OC)nc2[nH]cc(C(F)(F)F)c12 [Example 207] ... 16
5) CNc1cc(Nc2ccc(S(=O)(=O)N3CCC(N4CCOCC4)CC3)cc2OC)nc2[nH]cc(C(F)(F)F)c12 [Example 184] ... 3.2
6) CNc1cc(Nc2ccc(C(=O)N3CCC(N4CCOCC4)CC3)c3c2OCCO3)nc2[nH]cc(C(F)(F)F)c12 [Example 160] ... 0.35

* * *

Counter-ions that a name gives are not always drawn.
Quick record: IC50, UniProt:P49759.
measured.property: IC50

1. O=C(c1ccc(Nc2cc(C3CC3)c3c(C(F)(F)F)c[nH]c3n2)c2c1OCCO2)N1CCOCC1 [Example 220] ... 0.301 to 1 µM
2. CCOc1cc(Nc2ccc(S(=O)(=O)N3CCC(N4CCOCC4)CC3)cc2OC)nc2[nH]cc(C(F)(F)F)c12 [Example 232] ... 0.301 to 1 µM
3. COc1cc(S(=O)(=O)N2CCOCC2)ccc1Nc1cc(NCCS(C)(=O)=O)c2c(C#N)c[nH]c2n1 [Example 130] ... 0.301 to 1 µM
4. CCNc1cc(Nc2ccc(S(=O)(=O)N3CCOCC3)cc2OC)nc2[nH]cc(C#N)c12 [Example 132] ... 0.301 to 1 µM
5. CNc1cc(Nc2ccc(S(C)(=N)=O)cc2OC)nc2[nH]cc(C(F)(F)F)c12 (stereo not shown) [Example 103] ... 0.301 to 1 µM
6. CNc1cc(Nc2ccc(C(=O)N3CCC(N4CCOCC4)CC3)c3c2OCCO3)nc2[nH]cc(C#N)c12 [Example 115] ... 0.101 to 0.3 µM
7. COc1cc(P2(=O)CCN(C(C)=O)CC2)ccc1Nc1cc(C2CC2)c2c(C(F)(F)F)c[nH]c2n1 [Example 48] ... 0.301 to 1 µM
8. N#Cc1c[nH]c2nc(Nc3ccc(C(=O)N4CCOCC4)c4c3OCCO4)cc(NC3CCCCC3)c12 [Example 150] ... 0.301 to 1 µM
9. CNc1cc(Nc2ccc(C(=O)N3CCC(N4C[C@@H]5C[C@H]4CO5)CC3)c3c2OCC3)nc2[nH]cc(C(F)(F)F)c12 [Example 241] ... < 0.1 µM
10. CCNc1cc(Nc2ccc(C(=O)N3CCOCC3)c3c2OCCO3)nc2[nH]ccc12 [Example 3, trifluoroacetate] ... 0.301 to 1 µM
11. COc1cc(S(C)(=O)=O)ccc1Nc1cc(NC2CCC2)c2c(Cl)c[nH]c2n1 [Example 85] ... 0.301 to 1 µM
12. COc1cc(P(C)(C)=O)ccc1Nc1cc(C2CC2)c2c(C#N)c[nH]c2n1 [Example 230] ... 0.301 to 1 µM
13. O=C(c1ccc(Nc2cc(C3CC3)c3c(C(F)(F)F)c[nH]c3n2)c2c1CCO2)N1CCC(N2CCOCC2)CC1 [Example 93] ... < 0.1 µM
14. CCCNc1cc(Nc2ccc(P3(=O)CCN(C4CC4)CC3)cc2OC)nc2[nH]cc(C(F)(F)F)c12 [Example 45] ... 0.301 to 1 µM
15. CCNc1cc(Nc2ccc(C(=O)N3CC[C@H](N4CCOCC4)C3)c3c2OCC3)nc2[nH]cc(C(F)(F)F)c12 [Example 215] ... < 0.1 µM
16. COc1cc(S(=O)(=O)N2CCOCC2)ccc1Nc1cc(NC2CCCCC2)c2c(C(F)(F)F)c[nH]c2n1 [Example 181] ... 0.301 to 1 µM
17. CC(C)Nc1cc(Nc2ccc(C(=O)N3CCOCC3)c3c2OCCO3)nc2[nH]cc(Cl)c12 [Example 59] ... 0.301 to 1 µM
18. COc1cc(S(=O)(=O)N2CCOCC2)ccc1Nc1cc(NC(C)C)c2c(Cl)c[nH]c2n1 [Example 67] ... 0.301 to 1 µM
19. CCNc1cc(Nc2cc(F)c(S(=O)(=O)N3CCC(N4CCOCC4)CC3)cc2OC)nc2[nH]cc(C(F)(F)F)c12 [Example 266] ... 0.301 to 1 µM
20. COc1cc(S(=O)(=O)N2CCC(N3CCOCC3)CC2)ccc1Nc1cc(NC2CC2)c2c(C(F)(F)F)c[nH]c2n1 [Example 188, trifluoroacetate] ... 0.301 to 1 µM
21. CCNc1cc(Nc2ccc(C(=O)N3CCN(CC4CC4)CC3)c3c2OCC3)nc2[nH]cc(C(F)(F)F)c12 [Example 257] ... < 0.1 µM
22. COCCNc1cc(Nc2ccc(C(=O)N3CCC(N4CCOCC4)CC3)c3c2OCC3)nc2[nH]cc(C(F)(F)F)c12 [Example 55] ... < 0.1 µM
23. CCNc1cc(Nc2ccc(C(=O)N3CCOCC3)c3c2OCCO3)nc2[nH]cc(C(F)(F)F)c12 [Example 153] ... < 0.1 µM
24. COCCNc1cc(Nc2ccc(P3(=O)CCN(C4COC4)CC3)cc2OC)nc2[nH]cc(C(F)(F)F)c12 [Example 41] ... < 0.1 µM
25. CCOCCNc1cc(Nc2ccc(C(=O)N3CCC(N4CCOCC4)CC3)c3c2OCCO3)nc2[nH]cc(C(F)(F)F)c12 [Example 167] ... < 0.1 µM
